PAK3 (Homo sapiens, UniProt O75914): recorded IC50 for assorted molecules
Sequence (O75914 whole entry): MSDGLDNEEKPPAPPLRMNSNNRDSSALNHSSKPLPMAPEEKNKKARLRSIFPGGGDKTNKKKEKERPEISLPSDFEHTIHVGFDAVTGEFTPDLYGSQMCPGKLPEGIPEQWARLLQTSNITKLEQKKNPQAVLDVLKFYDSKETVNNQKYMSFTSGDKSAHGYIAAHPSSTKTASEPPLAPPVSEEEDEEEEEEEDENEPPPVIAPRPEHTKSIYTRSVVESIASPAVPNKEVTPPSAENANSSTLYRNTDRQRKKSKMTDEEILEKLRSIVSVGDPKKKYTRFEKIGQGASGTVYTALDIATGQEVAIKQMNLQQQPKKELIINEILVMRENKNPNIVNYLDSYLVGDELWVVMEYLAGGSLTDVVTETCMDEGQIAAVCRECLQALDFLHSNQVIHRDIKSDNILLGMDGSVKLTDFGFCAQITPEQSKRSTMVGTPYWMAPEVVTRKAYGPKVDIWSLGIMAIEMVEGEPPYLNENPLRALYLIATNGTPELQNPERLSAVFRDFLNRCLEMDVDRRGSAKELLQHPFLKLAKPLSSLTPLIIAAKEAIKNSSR

Sample records with IC50:
CC#Cc1cc2cnc(Nc3ccc(N4CCN(C)CC4)cc3)nc2n(Cc2c(F)cccc2C2CC2)c1=O    50 to 500 nM
CCN1CCC(c2ccc(Nc3ncc4cc(-c5ccc(-c6noc(C)n6)cc5Cl)c(=O)n(CC)c4n3)cc2)CC1    < 50 nM
CN1CCN(c2ccc(Nc3ncc4ccc(=O)n(Cc5ncsc5C5CC5)c4n3)cc2)CC1    500 to 5000 nM
Cc1nc(-c2ccc(-c3cc4cnc(Nc5ccc(C6CCN(C)CC6)cc5)nc4n(C)c3=O)c(Cl)c2)no1    < 50 nM
CCn1c(=O)c(-c2ccc(S(C)(=O)=O)cc2)cc2cnc(Nc3ccc(N4CCN(C)CC4)cc3)nc21    > 5000 nM
CCn1c(=O)c(-c2ccc(-c3cccnc3F)cc2Cl)cc2cnc(Nc3ccc(C4CCN5CCCC5C4)cc3)nc21 (centres unmarked)    < 50 nM
CCN1CCC(c2ccc(Nc3ncc4cc(-c5ccc(-c6cccnc6C)cc5Cl)c(=O)n(CC)c4n3)cc2)CC1    < 50 nM

Turning now to a further molecule:
Exercise: Please provide the recorded IC50 for CCn1c(=O)c(-c2ccc(-c3ccnc(C)c3)cc2Cl)cc2cnc(Nc3ccc(C4CCNCC4)c(F)c3)nc21 , tested on PAK3 (Homo sapiens, UniProt O75914).
Key: 50 to 500 nM

---

# IC50 measurements, system: PAK-4 (Homo sapiens)
# Sequence (O96013 whole entry): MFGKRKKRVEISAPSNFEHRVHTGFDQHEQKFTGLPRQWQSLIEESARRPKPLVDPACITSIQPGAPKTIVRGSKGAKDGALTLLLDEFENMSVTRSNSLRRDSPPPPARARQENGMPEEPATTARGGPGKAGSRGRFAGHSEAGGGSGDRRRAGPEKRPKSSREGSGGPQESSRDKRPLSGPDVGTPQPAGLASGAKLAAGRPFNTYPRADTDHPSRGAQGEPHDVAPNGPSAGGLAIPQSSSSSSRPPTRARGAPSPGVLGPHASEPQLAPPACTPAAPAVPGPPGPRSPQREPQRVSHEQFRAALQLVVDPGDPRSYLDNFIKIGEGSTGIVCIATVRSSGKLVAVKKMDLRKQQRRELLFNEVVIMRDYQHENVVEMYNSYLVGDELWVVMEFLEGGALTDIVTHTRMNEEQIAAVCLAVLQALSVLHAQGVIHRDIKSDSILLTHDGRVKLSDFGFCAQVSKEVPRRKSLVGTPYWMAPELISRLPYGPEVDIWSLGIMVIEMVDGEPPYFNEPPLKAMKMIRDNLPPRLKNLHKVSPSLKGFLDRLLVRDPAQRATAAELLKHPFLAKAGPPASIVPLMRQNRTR

Answered examples (6):
CCn1c(=O)c(-c2ccc(-c3ccnc(C(N)=O)c3)cc2Cl)cc2cnc(Nc3ccc(C4CCN(C)CC4)cc3)nc21    ≥ 5 µM
CCn1c(=O)c(-c2ccc(-c3cccnc3)cc2Cl)cc2cnc(Nc3ccc(CCN(C)C)cc3)nc21    0.5 to 5 µM
CCn1c(=O)c(-c2ccc(S(C)(=O)=O)cc2)cc2cnc(Nc3ccc(N4CCN(C)CC4)cc3)nc21    ≥ 5 µM
CCN1CCC(c2ccc(Nc3ncc4cc(-c5ccc(-c6cccnc6C)cc5Cl)c(=O)n(CC)c4n3)cc2)CC1    ≥ 5 µM
Cc1cc(-c2nccnc2C)ccc1-c1cc2cnc(Nc3ccc(C4CCN(C)CC4)cc3)nc2n(C)c1=O    ≥ 5 µM
CCn1c(=O)c(-c2ccc(-c3noc(C)n3)cc2Cl)cc2cnc(Nc3ccc(CCN(C)C)cc3)nc21    0.5 to 5 µM

Exercise: // fetch PAK-4 (Homo sapiens) IC50 for CCN1CCC(c2ccc(Nc3ncc4cc(-c5ccc(-c6ccc(C)nc6)cc5Cl)c(=O)n(CC)c4n3)cc2)CC1
Key: 0.5 to 5 µM

Exercise: // fetch PAK-4 (Homo sapiens) IC50 for CCn1c(=O)c(-c2ccc(-c3cccnc3C)cc2)cc2cnc(Nc3ccc(C4CCN(C)CC4)cc3)nc21
Key: ≥ 5 µM

Exercise: Hi! What's the reported IC50 for CCn1c(=O)c(-c2ccc(-c3cnc(C)s3)cc2Cl)cc2cnc(Nc3ccc(C4CCN(C)CC4)cc3)nc21 on PAK-4 (Homo sapiens)?
Key: 0.5 to 5 µM

Exercise: Give the reported IC50 for CCS(=O)(=O)c1ccccc1Cn1c(=O)ccc2cnc(Nc3ccc(N4CCN(C)CC4)cc3)nc21 (system: PAK-4 (Homo sapiens)).
Key: 0.5 to 5 µM

Exercise: PAK-4 (Homo sapiens) / IC50 / CCn1c(=O)c(-c2ccc(-c3noc(C)n3)cc2Cl)cc2cnc(Nc3ccc(C4CCN(C)CC4)cc3)nc21 : value?
Key: 0.5 to 5 µM

Exercise: Value wanted: IC50 (PAK-4 (Homo sapiens)) of entry CCn1c(=O)c(-c2ccc(-c3cccnc3F)cc2Cl)cc2cnc(Nc3ccc(C4CCN(C)CC4)cc3)nc21
Key: 0.05 to 0.5 µM

Exercise: Provide value of IC50 for this record tested with PAK-4 (Homo sapiens): CCN1CCN(c2ccc(Nc3ncc4cc(-c5ccc(-c6cccnc6)cc5Cl)c(=O)n(CC)c4n3)cc2F)CC1 [drawing 727]
Key: ≥ 5 µM

Exercise: Identify the measured IC50 of CCn1c(=O)c(-c2ccc(-c3cncc(C)n3)cc2Cl)cc2cnc(Nc3ccc(C4CCN(C)CC4)cc3)nc21 for PAK-4 (Homo sapiens).
Key: 0.5 to 5 µM

Exercise: Which measured IC50 belongs to CCn1c(=O)c(-c2ccc(-c3ccnc(C)n3)cc2Cl)cc2cnc(Nc3ccc(C4CCN(C)CC4)cc3)nc21 , tested on PAK-4 (Homo sapiens)?
Key: 0.5 to 5 µM

Exercise: Field: IC50 (PAK-4 (Homo sapiens)). Entry: CCn1c(=O)c(-c2ccc(-c3noc(C)n3)cc2Cl)cc2cnc(Nc3ccc(C4CCNCC4)cc3)nc21
Key: 0.5 to 5 µM

---

pIC50: −log10 of the molar value.
These records show pIC50 for PAK1 (Homo sapiens, UniProt Q13153).

Worked examples, 7 compounds total:
CCn1c(=O)c(-c2ccc(-c3noc(C)n3)cc2Cl)cc2cnc(Nc3ccc(C4CCNCC4)cc3)nc21    > 7.30
CCn1c(=O)c(-c2ccc(-c3cccnc3C)cc2Cl)cc2cnc(Nc3ccc(C4CCNCC4)cc3)nc21    > 7.30
CCn1c(=O)c(-c2ccc(-c3ccnc(C)n3)cc2Cl)cc2cnc(Nc3ccc(C4CCN(C)CC4)cc3)nc21    > 7.30
CCS(=O)(=O)c1ccccc1Cn1c(=O)ccc2cnc(Nc3ccc(N4CCN(C)CC4)cc3)nc21    6.30 to 7.30
CCn1c(=O)c(-c2ccc(-c3cccnc3F)cc2Cl)cc2cnc(Nc3ccc(C4CCNCC4)cc3)nc21    > 7.30
CCn1c(=O)c(-c2ccc(-c3nccnc3C)cc2Cl)cc2cnc(Nc3ccc(C4CCN(C)CC4)cc3)nc21    > 7.30
CCN1CCN(c2ccc(Nc3ncc4cc(-c5ccc(-c6cccnc6)cc5Cl)c(=O)n(CC)c4n3)cc2F)CC1 [drawing 727]    > 7.30

Kindly consider the entry below.
Exercise: Record CCn1c(=O)c(-c2cccc(S(C)(=O)=O)c2)cc2cnc(Nc3ccc(N4CCN(C)CC4)cc3)nc21 : what is its pIC50 with PAK1 (Homo sapiens, UniProt Q13153)?
Key: 6.30 to 7.30

---

This listing pairs compounds with measured pIC50.
# assayedSystem: UniProt:Q13177
# Sequence (Q13177 whole entry): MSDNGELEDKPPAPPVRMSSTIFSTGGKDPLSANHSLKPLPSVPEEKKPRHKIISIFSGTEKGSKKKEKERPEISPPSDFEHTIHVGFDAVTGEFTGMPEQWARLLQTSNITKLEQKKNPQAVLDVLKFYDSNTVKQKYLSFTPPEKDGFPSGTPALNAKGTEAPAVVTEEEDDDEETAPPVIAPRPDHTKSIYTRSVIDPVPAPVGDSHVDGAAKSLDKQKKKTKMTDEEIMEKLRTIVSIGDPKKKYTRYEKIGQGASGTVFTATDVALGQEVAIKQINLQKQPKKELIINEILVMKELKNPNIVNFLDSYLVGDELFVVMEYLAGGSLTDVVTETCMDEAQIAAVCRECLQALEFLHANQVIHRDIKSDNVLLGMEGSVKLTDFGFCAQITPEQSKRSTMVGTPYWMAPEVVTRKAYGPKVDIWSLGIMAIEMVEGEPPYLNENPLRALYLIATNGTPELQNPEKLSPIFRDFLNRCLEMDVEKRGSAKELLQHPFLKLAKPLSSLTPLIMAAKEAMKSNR
pIC50: −log10 of the molar value.

CCn1c(=O)c(-c2ccc(-c3cncc(C)n3)cc2Cl)cc2cnc(Nc3ccc(C4CCN(C)CC4)cc3)nc21    > 7.30

Exercise: Please provide the recorded pIC50 for CCn1c(=O)c(-c2ccc(-c3noc(C)n3)cc2Cl)cc2cnc(Nc3ccc(C4CCNCC4)cc3)nc21 , tested on UniProt:Q13177.
Key: > 7.30

Exercise: // map CN1CCN(c2ccc(Nc3ncc4ccc(=O)n(Cc5occc5C5CC5)c4n3)cc2)CC1 to recorded pIC50 (system: UniProt:Q13177)
Key: 5.30 to 6.30

Exercise: Given the entry CCn1c(=O)c(-c2ccc(-c3cccnc3C)cc2Cl)cc2cnc(Nc3ccc(C4CCNCC4)cc3)nc21 , what pIC50 was observed with UniProt:Q13177?
Key: > 7.30

Exercise: Given the entry CCN1CCC(c2ccc(Nc3ncc4cc(-c5ccc(-c6noc(C)n6)cc5Cl)c(=O)n(CC)c4n3)cc2)CC1 , what pIC50 was observed with UniProt:Q13177?
Key: > 7.30

Exercise: What measured pIC50 is associated with CCn1c(=O)c(-c2ccc(-c3ccnc(C)c3)cc2Cl)cc2cnc(Nc3ccc(C4CCNCC4)c(F)c3)nc21 on UniProt:Q13177?
Key: > 7.30

Exercise: Record Cc1nc(-c2ccc(-c3cc4cnc(Nc5ccc(C6CCN(C)CC6)cc5)nc4n(C)c3=O)c(Cl)c2)no1 : what is its pIC50 with UniProt:Q13177?
Key: > 7.30

Exercise: Missing value: pIC50, UniProt:Q13177, entry CCn1c(=O)c(-c2ccc(-c3cnc(C)cn3)cc2Cl)cc2cnc(Nc3ccc(C4CCN(C)CC4)cc3)nc21 . Fill in?
Key: > 7.30

Exercise: Field: pIC50 (UniProt:Q13177). Entry: CCS(=O)(=O)c1ccccc1Cn1c(=O)c(-c2ccccc2Cl)cc2cnc(Nc3ccc(N4CCN(C)CC4)cc3)nc21
Key: > 7.30

Exercise: Form field - read-out: pIC50; system: UniProt:Q13177; submitted item: CCn1c(=O)c(-c2ccc(-c3cccnc3F)cc2Cl)cc2cnc(Nc3ccc(N4CCN(C)CC4)cc3)nc21
Key: > 7.30

Exercise: Record CCn1c(=O)c(-c2ccc(-c3cccnc3F)cc2Cl)cc2cnc(Nc3ccc(C4CCNCC4)cc3)nc21 : what is its pIC50 with UniProt:Q13177?
Key: > 7.30

Exercise: Which measured pIC50 belongs to CCn1c(=O)c(-c2ccc(-c3nccnc3C)cc2Cl)cc2cnc(Nc3ccc(C4CCN(C)CC4)cc3)nc21 , tested on UniProt:Q13177?
Key: > 7.30

Exercise: I'm curious: which pIC50 was measured for CCN1CCC(c2ccc(Nc3ncc4cc(-c5ccc(-c6ccc(C)nc6)cc5Cl)c(=O)n(CC)c4n3)cc2)CC1 tested on UniProt:Q13177?
Key: > 7.30

Exercise: Requested read-out pIC50, target or system UniProt:Q13177, entry CCn1c(=O)c(-c2ccc(-c3cccnc3C)cc2)cc2cnc(Nc3ccc(C4CCN(C)CC4)cc3)nc21
Key: 5.30 to 6.30

Exercise: # value lookup — system UniProt:Q13177, readout pIC50, item CCN1CCN(c2ccc(Nc3ncc4cc(-c5ccc(-c6cccnc6)cc5Cl)c(=O)n(CC)c4n3)cc2F)CC1 [drawing 727]
Key: > 7.30

Exercise: State its pIC50 on UniProt:Q13177: CC#Cc1cc2cnc(Nc3ccc(N4CCN(C)CC4)cc3)nc2n(Cc2ccccc2C(F)(F)F)c1=O
Key: 6.30 to 7.30
